Biological target: human recombinant Yes [a.a. 2–543 (end)] (Homo sapiens)
Construct: human recombinant Yes [a.a; 2–543 (end)]; purchased BPS Bioscience 40488
Sequence (P07947 2-543): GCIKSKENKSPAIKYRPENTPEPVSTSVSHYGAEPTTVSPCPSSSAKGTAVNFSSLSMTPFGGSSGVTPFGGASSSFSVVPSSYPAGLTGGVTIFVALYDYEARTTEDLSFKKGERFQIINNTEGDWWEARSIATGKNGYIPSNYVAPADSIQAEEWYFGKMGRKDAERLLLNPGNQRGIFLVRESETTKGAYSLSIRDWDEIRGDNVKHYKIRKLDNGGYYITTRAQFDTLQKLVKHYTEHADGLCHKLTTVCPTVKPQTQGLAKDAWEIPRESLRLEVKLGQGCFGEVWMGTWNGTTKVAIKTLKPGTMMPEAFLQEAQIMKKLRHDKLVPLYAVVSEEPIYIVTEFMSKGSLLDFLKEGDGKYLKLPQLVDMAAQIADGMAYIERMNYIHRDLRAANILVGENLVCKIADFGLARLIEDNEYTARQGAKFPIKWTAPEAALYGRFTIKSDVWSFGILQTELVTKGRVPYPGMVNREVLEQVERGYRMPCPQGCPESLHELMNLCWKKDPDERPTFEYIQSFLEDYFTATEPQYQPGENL
Experiment: ADP-Glo kinase assay, inhibition rates of Yes phosphorylation activity (first and second screening)
Assay type: biochemical
Settings: first screening; mean of n = 4 wells; 10 μmol L−1 compound
Observable: First screening IR (inhibition rate) (%)

Cc1nc(-c2ccsc2)sc1C(=O)Nc1ccc(Cl)cc1F
6
Cc1ccc(NC(=O)CC2SC(=Nc3ccccc3C)N(CCCN3CCOCC3)C2=O)c([N+](=O)[O-])c1 (centres unmarked)
-3
Cc1cnn(-c2cccc(N3CCOC(c4ccc(F)cc4)C3)n2)c1 (centres unmarked)
0

[I] CCCn1c(C)cc(-c2csc(NC(=O)CCN3C(=O)COc4ccccc43)n2)c1C
[II] CCC(C)CS(=O)(=O)N1CCS(=O)(=O)C(C)(C)C1 (centres unmarked)
Problem: When the recorded First screening IR (inhibition rate) values are compared, which is smaller: that of I or that of II ? Choose, then provide that item's label.
Result: I
